TARGET OF ASSAY: glucocorticoid receptor (Homo sapiens)
Sequence (P04150 1-777): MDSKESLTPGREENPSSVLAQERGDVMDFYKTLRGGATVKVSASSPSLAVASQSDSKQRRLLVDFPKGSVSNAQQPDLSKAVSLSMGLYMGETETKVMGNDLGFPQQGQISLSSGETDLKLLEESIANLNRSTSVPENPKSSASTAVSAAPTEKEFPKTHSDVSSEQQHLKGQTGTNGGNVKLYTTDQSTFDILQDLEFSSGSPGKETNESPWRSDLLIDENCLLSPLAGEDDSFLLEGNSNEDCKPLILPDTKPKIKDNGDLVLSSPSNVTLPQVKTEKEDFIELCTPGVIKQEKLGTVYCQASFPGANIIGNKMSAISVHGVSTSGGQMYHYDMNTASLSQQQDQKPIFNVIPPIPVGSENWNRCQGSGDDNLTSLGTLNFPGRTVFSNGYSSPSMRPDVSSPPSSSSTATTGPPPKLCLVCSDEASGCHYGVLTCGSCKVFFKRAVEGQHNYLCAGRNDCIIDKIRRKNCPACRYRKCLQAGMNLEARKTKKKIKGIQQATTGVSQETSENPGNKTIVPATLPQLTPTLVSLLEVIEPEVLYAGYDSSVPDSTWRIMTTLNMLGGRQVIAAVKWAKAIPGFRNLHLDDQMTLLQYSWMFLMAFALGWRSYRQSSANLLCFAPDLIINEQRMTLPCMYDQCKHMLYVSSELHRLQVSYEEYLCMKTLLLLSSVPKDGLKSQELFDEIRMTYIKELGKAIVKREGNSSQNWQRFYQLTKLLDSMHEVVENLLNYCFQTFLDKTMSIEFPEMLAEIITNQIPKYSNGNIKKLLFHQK
QUANTITY: IC50 (nM)
Output spec: scalar in nM, unitless text.

Need IC50, item C[C@@]1(C(=O)O)CC[C@]2(C)CC[C@]3(C)C4=CC(=O)c5c(cc(O)c(O)c5C=O)[C@]4(C)CC[C@@]3(C)[C@@H]2C1 [demethylzeylasteral] 1190
